Target: HIV-1 envelope glycoprotein gp120 (IIIB) (HIV-1 IIIB (HXB2 clone entry), UniProt P04578)
Assay: SPR; gp120 (IIIB) coupled covalently to a CM5 chip; D7 or D7 mutants at 25 and 100 nM flowed over; Biacore X; 10 mM HEPES pH 7.5, 100 mM NaCl, 0.05% P20; 30 µl/min; association 3 min, dissociation 15 min; simultaneous fit of association and dissociation
Conditions: both partners purified

binder	Kd
VHH D7 Asp100C→Ala (VHH, PDB 2xa3 holds D7 with five framework changes) with the stated CDR3 mutation; Chothia numbering (100C is an insertion position)) VHH: AVQLVESGGGLAQAGGSLRLSCTVSGRTSSSHDMGWFRQAPGKEREFVAAISWSGGTTNYADSVKGRFAISKDNAKNAVSLQMNSLKPEDTAVYYCAAKWRPLRYSANPSNSDYNYWGQGTQVTVSS	0.84 nM
VHH D7 double mutant Asn101→Tyr/Tyr102→Asp (VHH, PDB 2xa3 holds D7 with five framework changes) with the stated CDR3 mutations; Chothia numbering; also called double mutant Asn^101Tyr^102) VHH: AVQLVESGGGLAQAGGSLRLSCTVSGRTSSSHDMGWFRQAPGKEREFVAAISWSGGTTNYADSVKGRFAISKDNAKNAVSLQMNSLKPEDTAVYYCAAKWRPLRYSDNPSNSDYYDWGQGTQVTVSS	0.18 nM
VHH D7 Lys95→Ser (VHH, PDB 2xa3 holds D7 with five framework changes) with the stated CDR3 mutation; Chothia numbering) VHH: AVQLVESGGGLAQAGGSLRLSCTVSGRTSSSHDMGWFRQAPGKEREFVAAISWSGGTTNYADSVKGRFAISKDNAKNAVSLQMNSLKPEDTAVYYCAASWRPLRYSDNPSNSDYNYWGQGTQVTVSS	377 nM
VHH D7 Trp96→Ala (VHH, PDB 2xa3 holds D7 with five framework changes) with the stated CDR3 mutation; Chothia numbering) VHH: AVQLVESGGGLAQAGGSLRLSCTVSGRTSSSHDMGWFRQAPGKEREFVAAISWSGGTTNYADSVKGRFAISKDNAKNAVSLQMNSLKPEDTAVYYCAAKARPLRYSDNPSNSDYNYWGQGTQVTVSS	27.9 nM

Source of measurements: paper PMC2864739
